Melanocortin receptor 3 (Homo sapiens): reported AC50 for various molecules. Also: assay procedure not described here.
Sequence (P41968 whole entry): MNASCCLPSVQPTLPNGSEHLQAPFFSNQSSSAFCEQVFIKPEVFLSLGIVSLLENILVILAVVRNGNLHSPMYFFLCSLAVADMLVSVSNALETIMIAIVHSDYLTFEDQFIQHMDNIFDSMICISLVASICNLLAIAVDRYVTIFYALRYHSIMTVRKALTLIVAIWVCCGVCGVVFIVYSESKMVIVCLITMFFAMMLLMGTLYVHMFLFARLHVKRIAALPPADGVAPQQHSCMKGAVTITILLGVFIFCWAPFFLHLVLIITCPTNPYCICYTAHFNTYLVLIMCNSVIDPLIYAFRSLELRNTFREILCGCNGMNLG

These recorded examples may help you get a feel for the data.
| MOLECULE | AC50 |
| --- | --- |
| CN(C)/N=N/c1[nH]cnc1C(N)=O [DACARBAZINE] | > 10 µM |
| Clc1ccc(CCCOCCCN2CCCCC2)cc1 [PITOLISANT] | > 30 µM |
| Nc1nc(Cl)nc2c1ncn2[C@H]1C[C@H](O)[C@@H](CO)O1 [CLADRIBINE] | > 30 µM |
| CCCCCCOc1ccccc1C(N)=O [EXALAMIDE] | > 30 µM |
| COc1cccc(C2(O)CCCCC2CN(C)C)c1 (stereo not given) [TRAMADOL] | > 30 µM |
| CN1C(C(=O)Nc2ccccn2)=C(O)c2sc(Cl)cc2S1(=O)=O [LORNOXICAM] | > 30 µM |
| CCC(C(=O)O)c1ccc(N2Cc3ccccc3C2=O)cc1 (stereo not given) [INDOBUFEN] | > 30 µM |
| CC(CC(c1ccccc1)c1ccccc1)NC(C)(C)C (stereo not given) [TERODILINE] | > 30 µM |

For the 7 molecules below, give their AC50 values.
1. O=C(O)[C@H](CC(=O)N1C[C@H]2CCCC[C@H]2C1)Cc1ccccc1 [MITIGLINIDE]
2. CCOc1ccccc1OCC1CNCCO1 (stereo not given) [VILOXAZINE]
3. C#C[C@]1(O)CC[C@H]2[C@@H]3CCc4cc(OC5CCCC5)ccc4[C@H]3CC[C@@]21C [QUINESTROL]
4. COc1cc2nc(N3CCN(C(=O)c4ccco4)CC3)nc(N)c2cc1OC [PRAZOSIN]
5. C[N+]1(C)CCC(OC(=O)C(O)(c2ccccc2)C2CCCC2)C1 (stereo not given) [GLYCOPYRRONIUM BROMIDE]
6. Clc1ccc(C(c2ccccc2Cl)C(Cl)Cl)cc1 (stereo not given) [MITOTANE]
7. CN(C)CCC=C1c2ccccc2C=Cc2ccccc21 [CYCLOBENZAPRINE]

1. > 10 µM
2. > 30 µM
3. > 10 µM
4. > 30 µM
5. > 30 µM
6. > 10 µM
7. > 30 µM

====

UniProtKB O43193: reported AC50 for various molecules.
Sequence (O43193 whole entry): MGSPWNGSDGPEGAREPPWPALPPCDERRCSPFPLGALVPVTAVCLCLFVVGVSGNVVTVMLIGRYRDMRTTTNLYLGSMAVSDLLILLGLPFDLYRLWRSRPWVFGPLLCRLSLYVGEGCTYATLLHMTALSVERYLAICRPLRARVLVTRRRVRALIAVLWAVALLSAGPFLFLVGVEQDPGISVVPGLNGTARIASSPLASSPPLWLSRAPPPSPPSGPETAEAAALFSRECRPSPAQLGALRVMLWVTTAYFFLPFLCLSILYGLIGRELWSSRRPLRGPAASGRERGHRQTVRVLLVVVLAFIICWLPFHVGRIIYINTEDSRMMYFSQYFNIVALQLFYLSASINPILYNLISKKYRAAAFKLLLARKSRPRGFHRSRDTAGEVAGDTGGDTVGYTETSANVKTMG

These recorded examples may help you get a feel for the data.
| MOLECULE | AC50 |
| --- | --- |
| CCC1(CC)C(=O)NCC(C)C1=O (centres undefined) | > 30 µM |
| CO[C@H]1C[C@@H]2CC[C@@H](C)[C@@](O)(O2)C(=O)C(=O)N2CCCC[C@H]2C(=O)O[C@H]([C@H](C)C[C@@H]2CC[C@@H](O)[C@H](OC)C2)CC(=O)[C@H](C)/C=C(\C)[C@@H](O)[C@@H](OC)C(=O)[C@H](C)C[C@H](C)/C=C/C=C/C=C/1C | > 10 µM |
| Cc1cccc(C(C)c2cnc[nH]2)c1C (centres undefined) | > 30 µM |

We next turn to a different molecule, shown below.
// returns reported AC50 for input COc1cc(NC(C)CCCN)c2ncccc2c1 (centres undefined)
> 30 µM

====

Alpha-2B adrenergic receptor (Homo sapiens, UniProt P18089): reported AC50 for various compounds. Also: assay procedure not described here.
Sequence (P18089 whole entry): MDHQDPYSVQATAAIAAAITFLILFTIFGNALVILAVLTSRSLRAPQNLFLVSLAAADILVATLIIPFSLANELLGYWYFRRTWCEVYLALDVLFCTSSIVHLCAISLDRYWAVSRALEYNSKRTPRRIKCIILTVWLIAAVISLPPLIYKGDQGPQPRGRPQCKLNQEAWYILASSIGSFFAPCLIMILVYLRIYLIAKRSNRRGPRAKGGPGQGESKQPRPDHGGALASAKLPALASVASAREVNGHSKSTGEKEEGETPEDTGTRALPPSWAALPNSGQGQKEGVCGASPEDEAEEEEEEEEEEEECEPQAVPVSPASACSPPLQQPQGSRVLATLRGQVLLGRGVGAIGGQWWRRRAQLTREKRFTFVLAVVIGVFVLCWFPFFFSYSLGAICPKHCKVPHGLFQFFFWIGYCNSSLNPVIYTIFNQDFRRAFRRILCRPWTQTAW

| COMPOUND | AC50 |
| --- | --- |
| O=C(O)[C@H](CC(=O)N1C[C@H]2CCCC[C@H]2C1)Cc1ccccc1 [MITIGLINIDE] | > 10 µM |
| O=C1C(O)=C([C@H]2CC[C@H](c3ccc(Cl)cc3)CC2)C(=O)c2ccccc21 [ATOVAQUONE] | > 30 µM |
| Nc1ccn([C@H]2CC[C@@H](CO)O2)c(=O)n1 [ZALCITABINE] | > 30 µM |
| COc1ccccc1OCC(O)CN1CCN(CC(=O)Nc2c(C)cccc2C)CC1 (stereo unspecified) [RANOLAZINE] | 17 µM |
| O=C(O)/C=C/c1ccc(Cn2ccnc2)cc1 [OZAGREL] | > 30 µM |
| CC1(C)O[C@@H]2C[C@H]3[C@@H]4CCC5=CC(=O)C=C[C@]5(C)[C@H]4[C@@H](O)C[C@]3(C)[C@]2(C(=O)CO)O1 [DESONIDE] | > 10 µM |
| O=C(Cc1ccc(-c2ccccc2)cc1)Nc1ccccn1 [DIFENPIRAMIDE] | > 30 µM |
| CC(C)=CCC/C(C)=C/C=C/C(C)=C/C=C/C(C)=C/C=C/C=C(C)/C=C/C=C(C)/C=C/C=C(\C)CCC=C(C)C [LYCOPENE] | > 30 µM |
| CC[C@@H](C(N)=O)N1CCCC1=O | > 30 µM |
| Cc1oc(=O)oc1CN1CCN(c2cc3c(cc2F)c(=O)c(C(=O)O)c2n3C(C)S2)CC1 (stereo unspecified) [PRULIFLOXACIN] | > 30 µM |

For the 8 compounds below, give their AC50 values.
1. CC1(C)NC(=O)N(c2ccc([N+](=O)[O-])c(C(F)(F)F)c2)C1=O [NILUTAMIDE]
2. CNC1Cc2ccccc2N(C)c2ccccc21 (stereo unspecified) [METAPRAMINE]
3. C=CCc1ccccc1OCC(O)CNC(C)C (stereo unspecified) [ALPRENOLOL]
4. COC(=O)[C@H]1[C@H]2C[C@@H]3c4[nH]c5cc(OC)ccc5c4CCN3C[C@H]2C[C@@H](OC(=O)/C=C/c2cc(OC)c(OC)c(OC)c2)[C@@H]1OC [RESCINNAMINE]
5. CN(C)CCC=C1c2ccccc2C=Cc2ccccc21 [CYCLOBENZAPRINE]
6. C#C[C@]1(O)CC[C@H]2[C@@H]3CCc4cc(OC5CCCC5)ccc4[C@H]3CC[C@@]21C [QUINESTROL]
7. CC(C)OC(=O)CCC/C=C\C[C@@H]1[C@@H](CC[C@@H](O)CCc2ccccc2)[C@H](O)C[C@@H]1O [LATANOPROST]
8. CCOc1ccccc1OCC1CNCCO1 (stereo unspecified) [VILOXAZINE]

1: > 30 µM; 2: 29 µM; 3: > 30 µM; 4: > 10 µM; 5: > 10 µM; 6: > 10 µM; 7: > 30 µM; 8: > 10 µM
